growth overview
System: LOX IMVI melanoma
Assay: NCI-60 one-dose screen, 48 h (100 = growth as untreated, 0 = no growth, -100 = all killed)
Details: 10 µM unless noted
This is part of a sample that, as a whole, favours compounds with a hit. Of some 83,000 tested, about 20% had one in any assay.
Reported metric: growth (%)

Compound	Measured number
Fc1ccc(Nc2ccc3c(OCCCN4CCOCC4)cccc3n2)cc1F	6.82
COc1ccc(-c2cc(=O)oc3ccc(Cl)cc23)cc1F	21.9
CCCCC/C(=C\c1ccccc1)C1OC(C)C(C)O1 (stereo not given)	97.9
COC(=O)[C@]12CC[C@@H](C)[C@H](C)[C@@H]1C1=CC[C@@H]3[C@@]4(C)CC(=O)[C@H](OC(=O)c5ccco5)[C@@]5(C)COC(=C45)C[C@@]3(C)[C@]1(C)CC2	6.2
COc1cc(-c2cc3ncccc3c3[nH]c(=O)c4cccnc4c23)cc(OC)c1OC	42.5
O=S(=O)(NCCCNc1cc(-c2cn(-c3ccccc3)nc2-c2cccc(O)c2)ccn1)c1ccc(F)cc1	18.9
COc1ccc(-n2c(/C=C/c3ccc(O)c(OC)c3)cc(/C=C/c3ccc(O)c(OC)c3)nc2=O)cc1	13
CCCCCCCCNc1cccc2c1C(=O)c1ccccc1C2=O	105
Cn1cc(-c2csc(-c3cn(CCN)c4ccccc34)n2)c2cccnc21	45.3
C=C1C(=O)O[C@H]2[C@H]1CC/C(COC(=O)NCc1c[nH]c3ccccc13)=C\CC[C@@]1(C)O[C@@H]21	16.4
Cc1cc(N2CCCC2)nc(N(CCNc2ccnc3cc(Cl)ccc23)Cc2ccco2)n1	4.43
O=C(CCCCCn1c2ccccc2c2c3c(c4c5ccccc5[nH]c4c21)C(=O)N(O)C3=O)N1CCOCC1	-16.8
CN(C)CCCCC(C(=O)CBr)(c1ccccc1)c1ccccc1	-39
Cc1ccc(Nc2c(C(N)=O)cnc3ccc(S(=O)(=O)Nc4cc(C)on4)cc23)cc1	95.8
O=C1c2cc3c(cc2-c2c1c1ccc(Cl)cc1c(=O)n2C[C@H](O)[C@@H](O)[C@H](O)CO)OCO3	-18.5
O=C(/C(=C(\C(=O)c1ccccc1)c1ccccc1)c1ccccc1)c1ccccc1	64.6
OCC12CCCC(CO)(COC1)C2O (stereo not given)	98.6
Cn1cnc2c1c(=O)n(CCC(=O)Nc1ccc(F)cc1)c(=O)n2C	102
Cn1cc(-c2csc(-c3cn(CCCN4CCCCC4)c4ccc(Br)cc34)n2)c2cccnc21	-71.4
Oc1ccc(Nc2ccccc2)cc1	71.4
